target: mu opioid receptor (CHO-hMOR cell membranes) (Homo sapiens); construct: purchased Receptor Biology, Inc. (Baltimore, Md.); host or cells: CHO cells (recombinant expression); assay: Mu Opioid Receptor Functional Assay: [35S]GTPγS Binding in CHO-hMOR Cell Membranes, Versions 1 and 2; format: biochemical; conditions: version 2, % inhibition of agonist-stimulated GTPγS binding
Sequence (P35372 whole entry): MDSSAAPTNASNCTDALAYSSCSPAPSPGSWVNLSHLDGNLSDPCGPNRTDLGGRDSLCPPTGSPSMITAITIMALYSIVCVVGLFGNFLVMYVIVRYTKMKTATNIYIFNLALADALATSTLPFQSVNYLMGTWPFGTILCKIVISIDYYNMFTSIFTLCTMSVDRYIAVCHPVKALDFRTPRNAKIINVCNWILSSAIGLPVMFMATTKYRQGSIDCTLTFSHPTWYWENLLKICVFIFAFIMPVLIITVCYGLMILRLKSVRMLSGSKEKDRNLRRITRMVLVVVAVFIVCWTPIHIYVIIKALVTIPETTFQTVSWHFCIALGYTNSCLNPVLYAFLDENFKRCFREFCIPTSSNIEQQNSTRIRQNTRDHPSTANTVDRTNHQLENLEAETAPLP
RECORDED_METRIC: MOR GTP binding assay_v2 (% I) (%)
Your answer should be a plain number; it is taken to be in %.

A selection of reference data follows.
* Cc1cc(C(N)=O)cc(C)c1C[C@H](N)C(=O)N(Cc1cccc(C(=O)O)c1)[C@@H](C)c1nc(-c2ccccc2)c[nH]1 | 36.00
* COC(=O)c1ccc(CN(C(=O)[C@@H](N)Cc2c(C)cc(C(N)=O)cc2C)[C@@H](C)c2nc(-c3ccccc3)c[nH]2)o1 | 10.96
* COc1ccc(CN(C(=O)[C@@H](N)Cc2c(C)cc(C(N)=O)cc2C)[C@@H](C)c2nc(-c3ccccc3)c[nH]2)cc1C(N)=O | 8.21
* COc1ccc(CN(C(=O)[C@@H](N)Cc2c(C)cc(C(N)=O)cc2C)[C@@H](C)c2nc(-c3ccccc3)c[nH]2)cc1-c1nnn[nH]1 | 13.95
* COC(=O)c1ccc(CN(C(=O)[C@@H](N)Cc2c(C)cc(C(N)=O)cc2C)[C@@H](C)c2nc(-c3ccccc3)c[nH]2)nc1 | 24.00
* COc1ccc(CN(Cc2nc(-c3ccccc3)c[nH]2)C(=O)[C@@H](N)Cc2ccc(C(N)=O)cc2)cc1C(=O)O | 7.87
* Cc1cc(O)cc(C)c1C[C@H](N)C(=O)N(Cc1ccnc2ccccc12)[C@@H](C)c1nc(-c2ccccc2)c[nH]1 | 21.30
* COC(=O)c1ccc(CN(C(=O)[C@@H](N)Cc2c(C)cc(C(N)=O)cc2C)[C@@H](C)c2nc(-c3ccccc3)c[nH]2)cn1 | 33.00
* COc1ccc(CN(C(=O)[C@@H](N)Cc2c(C)cc(C(N)=O)cc2C)[C@@H](C)c2nc(-c3ccccc3)c[nH]2)cc1C(=O)N1CCOCC1 | 9.35
* COc1ccc(CN(C(=O)[C@@H](N)Cc2c(C)cc(O)cc2C)[C@@H](C)c2nc(-c3ccccc3)c[nH]2)cc1C(=O)O | 2.89

So what does the record say about MOR GTP binding assay_v2 (% I) for COc1ccc(CN(C(=O)[C@@H](N)Cc2c(C)cc(C(N)=O)cc2C)[C@@H](C)c2nc(-c3ccccc3)c[nH]2)cc1C(=O)NC1CC1 ? 15.40

What value of measured MOR GTP binding assay_v2 (% I) is listed for COc1ccc(CN(C(=O)[C@@H](N)Cc2c(C)cc(C(N)=O)cc2C)[C@@H](C)c2nc(-c3ccccc3)c[nH]2)cc1-c1nnn(C(C)(C)C)n1 ? 47.00

Which MOR GTP binding assay_v2 (% I) value belongs to Cc1cc(C(N)=O)cc(C)c1C[C@H](N)C(=O)N(Cc1ccc(C(=O)O)cn1)[C@@H](C)c1nc(-c2ccccc2)c[nH]1 ? 28.00
